# Experimental system: A. fumigatus UGM (Aspergillus fumigatus)
# Construct: 8x His-tag (TEV-cleavable) (cleaved yes); made in house; host or cells: E. coli BL21 Turbo (DE3)
# Experiment description: biochemical
# Assay type: biochemical
pIC50: −log10 of the molar value.
Endpoint: pIC50

- Smiles repr: "O=c1cc(-c2ccccc2)oc2cc(O)cc(O)c12"
  Endpoint: "pIC50"
  Result: "< 3.00"

----------
# Experimental system: A. fumigatus UGM (Aspergillus fumigatus, UniProt Q4W1X2)
# Construct: 8x His-tag (TEV-cleavable) (cleaved yes); made in house; host or cells: E. coli BL21 Turbo (DE3)
# Sequence (Q4W1X2 whole entry): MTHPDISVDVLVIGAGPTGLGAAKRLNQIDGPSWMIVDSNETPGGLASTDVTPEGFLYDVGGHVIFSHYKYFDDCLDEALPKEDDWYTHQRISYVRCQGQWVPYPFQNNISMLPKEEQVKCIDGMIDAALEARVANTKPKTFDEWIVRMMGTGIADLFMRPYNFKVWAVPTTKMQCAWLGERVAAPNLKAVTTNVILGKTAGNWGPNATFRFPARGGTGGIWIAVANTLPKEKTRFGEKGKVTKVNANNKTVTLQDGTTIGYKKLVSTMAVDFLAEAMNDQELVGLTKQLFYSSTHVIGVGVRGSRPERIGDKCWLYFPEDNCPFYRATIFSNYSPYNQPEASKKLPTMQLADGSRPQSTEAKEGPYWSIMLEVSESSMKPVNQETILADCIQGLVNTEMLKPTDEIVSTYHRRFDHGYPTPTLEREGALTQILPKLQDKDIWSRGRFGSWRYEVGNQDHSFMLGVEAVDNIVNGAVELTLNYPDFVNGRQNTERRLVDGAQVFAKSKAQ
# Experiment description: biochemical
# Format: biochemical
# Condition context: read-out: Inhibition > 50 %
Property: inhibition at 200 µM; scope: individual compounds

- Compound: "CS(=O)(=O)Nc1ccc([N+](=O)[O-])cc1Oc1ccccc1 [Nimesulide, reference compound]"
  Experimental system: "A. fumigatus UGM (Aspergillus fumigatus, UniProt Q4W1X2)"
  inhibition at 200 µM: "< 50%"
- Compound: "O=c1cc(-c2ccccc2)oc2cc(O)cc(O)c12 [Chrysin]"
  Experimental system: "A. fumigatus UGM (Aspergillus fumigatus, UniProt Q4W1X2)"
  inhibition at 200 µM: "> 50%"
- Compound: "O=C(NCCO[N+](=O)[O-])c1cccnc1 [Nicorandil, reference compound]"
  Experimental system: "A. fumigatus UGM (Aspergillus fumigatus, UniProt Q4W1X2)"
  inhibition at 200 µM: "< 50%"
- Compound: "O=C1C[C@@H](c2ccc(O)cc2)Oc2cc(O)cc(O)c21 [(2S)-naringenin]"
  Experimental system: "A. fumigatus UGM (Aspergillus fumigatus, UniProt Q4W1X2)"
  inhibition at 200 µM: "> 50%"
- Compound: "O=C(O)c1cc(/N=N/c2ccc(O)c(C(=O)O)c2)ccc1O [Olsalazine sodium, reference compound]"
  Experimental system: "A. fumigatus UGM (Aspergillus fumigatus, UniProt Q4W1X2)"
  inhibition at 200 µM: "< 50%"

----------
# Experimental system: A. fumigatus UGM (Aspergillus fumigatus)
# Construct: 8x His-tag (TEV-cleavable) (cleaved yes); made in house; host or cells: E. coli BL21 Turbo (DE3)
# Experiment description: biochemical
# Format: binding
# Condition context: ITC, 25 °C
# maps each entry to its ∆H

- Compound: "O=C1C[C@@H](c2ccc(O)cc2)Oc2cc(O)cc(O)c21"
  ∆H: "-4.8 ± 1.0 kcal/mol"
- Compound: "O=c1ccn([C@@H]2O[C@H](COP(=O)(O)OP(=O)(O)O)[C@@H](O)[C@H]2O)c(=O)[nH]1 [UDP, reference compound]"
  ∆H: "3.3 ± 0.1 kcal/mol"
- Compound: "COc1ccc([C@@H]2CC(=O)c3c(O)cc(O)cc3O2)cc1O"
  ∆H: "-4.1 ± 0.4 kcal/mol"
- Compound: "NC(=O)c1ccc[n+]([C@@H]2O[C@H](COP(=O)([O-])OP(=O)(O)OC[C@H]3O[C@@H](n4cnc5c(N)ncnc54)[C@H](OP(=O)(O)O)[C@@H]3O)[C@@H](O)[C@H]2O)c1 [NADP^+, reference compound]"
  ∆H: "-13.0 ± 0.3 kcal/mol"

----------
Listed compounds paired with reported remaining activity at 20 µM
# Experimental system: A. fumigatus UGM (Aspergillus fumigatus, UniProt Q4W1X2)
# Construct: 8x His-tag (TEV-cleavable) (cleaved yes); made in house; host or cells: E. coli BL21 Turbo (DE3)
# Experiment description: biochemical
# Assay type: binding
# Condition context: read-out: Normalized anisotropy (%)

- Compound: "O=C(NCCO[N+](=O)[O-])c1cccnc1 [Nicorandil, reference compound]"
  Unit abbrev: "%"
  remaining activity at 20 µM: 27
- Compound: "O=C(O)c1cc(/N=N/c2ccc(O)c(C(=O)O)c2)ccc1O [Olsalazine sodium, reference compound]"
  Unit abbrev: "%"
  remaining activity at 20 µM: 48
- Compound: "CS(=O)(=O)Nc1ccc([N+](=O)[O-])cc1Oc1ccccc1 [Nimesulide, reference compound]"
  Unit abbrev: "%"
  remaining activity at 20 µM: 28
- Compound: "Cc1ccc(C(=O)Nc2ccc(S(=O)(=O)O)c3cc(S(=O)(=O)O)cc(S(=O)(=O)O)c23)cc1NC(=O)c1cccc(NC(=O)Nc2cccc(C(=O)Nc3cc(C(=O)Nc4ccc(S(=O)(=O)O)c5cc(S(=O)(=O)O)cc(S(=O)(=O)O)c45)ccc3C)c2)c1 [Suramin hexasodium, reference compound]"
  Unit abbrev: "%"
  remaining activity at 20 µM: 41

Recorded values, source paper PMC5589893.
